pIC50: −log10 of the molar value.
metric: pIC50

Ask: API: value(readout= pIC50, system= LSD1 (Homo sapiens), query= CC(C)(C)OC(=O)NC1CC1c1ccc(OC(=O)OC(C)(C)C)cc1 (stereo not shown) )
Result: ~4.67
